System: P388 mouse leukemia cells
Conditions: 92 h
Method: Each type of assay must be simplified and miniaturized to assess the activities of the library peptides in a 96-well format for the high-throughput screening. […] Mammalian cytotoxicity assay of bead-derived peptides . P388 cells were obtained from Institute of […] for 92 h, the numbers of viable cells were determined by […] at 37 °C. The absorbance of each well at 415 nm was measured using a Benchmark microplate reader (Bio-Rad). The cytotoxicities were evaluated as cell viability (%). […]
Where a SMILES comes first, the peptide text is derived from it. [ ]: non-standard residue; d: D form. The star is where a group is joined. NHCH2CH2OH = OCCN*; For = O=C*
quantity: cell viability/% (%)
Field format: number, assumed %, no unit text.

Data request, read-out cell viability/%, for CC(C)C[C@@H](NC(=O)[C@H](C)NC(=O)CNC(=O)[C@@H](NC=O)C(C)C)C(=O)N[C@@H](C)C(=O)N[C@H](CC(C)C)C(=O)N[C@H](C(=O)N[C@H](CC(C)C)C(=O)N[C@@H](Cc1c[nH]c2ccccc12)C(=O)N[C@@H](C(=O)N[C@@H](Cc1c[nH]c2ccccc12)C(=O)N[C@@H](C(=O)N[C@@H](Cc1c[nH]c2ccccc12)C(=O)N[C@@H](C(=O)N[C@@H](Cc1c[nH]c2ccccc12)C(=O)NCCO)C(C)C)C(C)C)C(C)C)C(C)C [compound 11323] (For-VGA[dL]A[dL]V[dL]W[dV]W[dV]W[dV]W-NHCH2CH2OH)
5.2

// cell viability/% lookup, key: CNC(=O)C[C@@H](NC(=O)[C@@H](NC(=O)[C@@H](CC(C)C)NC(=O)[C@H](C)NC(=O)[C@H](NC(=O)[C@H](C)NC(=O)CNC(=O)[C@@H](NC=O)C(C)C)C(C)C)C(C)C)C(=O)N[C@@H](Cc1c[nH]c2ccccc12)C(=O)N[C@H](CC(C)C)C(=O)N[C@@H](Cc1c[nH]c2ccccc12)C(=O)N[C@H](CC(C)C)C(=O)N[C@@H](Cc1c[nH]c2ccccc12)C(=O)N[C@@H](C(=O)N[C@@H](Cc1c[nH]c2ccccc12)C(=O)NCCO)C(C)C [compound 3800] (For-VGA[dV]A[dL]V[dD](NHMe)W[dL]W[dL]W[dV]W-NHCH2CH2OH)
100.0

For CC(C)C[C@@H](NC(=O)[C@H](C)NC(=O)CNC(=O)[C@@H](NC=O)C(C)C)C(=O)N[C@@H](C)C(=O)N[C@H](CC(C)C)C(=O)N[C@H](C(=O)N[C@@H](C(=O)N[C@@H](Cc1c[nH]c2ccccc12)C(=O)N[C@@H](C(=O)N[C@@H](Cc1c[nH]c2ccccc12)C(=O)N[C@@H](C(=O)N[C@@H](Cc1c[nH]c2ccccc12)C(=O)N[C@@H](C(=O)N[C@@H](Cc1c[nH]c2ccccc12)C(=O)NCCO)C(C)C)C(C)C)C(C)C)C(C)C)C(C)C [compound 5488] (For-VGA[dL]A[dL]V[dV]W[dV]W[dV]W[dV]W-NHCH2CH2OH) , what is its reported cell viability/%?
36.4

Reported cell viability/%, molecule CC(C)C[C@@H](NC(=O)[C@H](Cc1c[nH]c2ccccc12)NC(=O)[C@H](NC(=O)[C@H](Cc1c[nH]c2ccccc12)NC(=O)[C@H](NC(=O)[C@H](Cc1c[nH]c2ccccc12)NC(=O)[C@H](NC(=O)[C@@H](NC(=O)[C@H](NC(=O)[C@H](C)NC(=O)[C@H](NC(=O)[C@H](C)NC(=O)CNC(=O)[C@@H](NC=O)C(C)C)C(C)C)C(C)C)C(C)C)C(C)C)C(C)C)C(C)C)C(=O)N[C@@H](Cc1c[nH]c2ccccc12)C(=O)NCCO [compound 12606] (For-VGA[dV]A[dV]V[dV]W[dV]W[dV]W[dL]W-NHCH2CH2OH) : ____
100.0

Hello, the source for this data is paper PMC7531004, in case you need it.
